test: Oral bioavailability in cynomolgus monkey at 3 mg/kg; format: ADME, organism-based, Macaca fascicularis; details: in vivo
Experimental readout: bioavailability (%)
Return type: number; implicit unit %.

# bioavailability (compound: O=C(N[C@H](CO)c1ccc(Cl)c(F)c1)N1CCc2cnc(NC3CCOCC3)nc2C1 ) is 19

---

biological target: Cyclin-dependent kinase 2 (Homo sapiens)
Experimental readout: IC50 (nM)
Return type: number; implicit unit nM.

# IC50 (compound: C[C@@H](NC(=O)N1CCc2cnc(NC3CCOCC3)nc2C1)c1ccc2cc[nH]c2c1 ) is 69

# IC50 (compound: CC[C@@H](NC(=O)N1CCc2cnc(N[C@@H](C)CO)nc2C1)c1ccc(OC)c(Cl)c1 ) is 71

# IC50 (compound: CC[C@@H](NC(=O)N1CCc2cnc(N[C@@H](C)CO)nc2C1)c1ccc(Cl)c(Cl)c1 ) is 12

# IC50 (compound: C[C@@H](NC(=O)N1CCc2cnc(NC3CCOCC3)nc2C1)c1ccc(Cl)c(F)c1 ) is 13

The values you see were collected from ChEMBL document CHEMBL3297705.
